From: the kinase profiling compilation of Christmann-Franck et al. (2016)

Assignment: determine reported residual activity for the given compounds.
ASSAY SYSTEM: BRSK2 (human)
PROTOCOL TEXT: radiometric filter-binding kinase assay, Kinase HotSpot
MEASUREMENT CONDITIONS: compound 0.5 µM; ATP 10 µM
Numbers only, in %.

In [3]: df
Out[3]:
                            chemical_smiles  measured_endpoint  recorded_measurement
0  N/C(=N\N=C/c1ccc(-c2cccc([N+](=O)[O-])c2)o1)N[N+](=O)[O-]  residual activity                   106

Provide reported residual activity for each item, in the same order as listed.
1. Nc1ncnc2c1cnn2-c1ccccc1
2. O=c1c(-c2ccc(F)cc2)c(-c2ccncc2)[nH]n1-c1ccc(Cl)cc1
3. O=c1c2ccccc2[nH]c(=S)n1CCN1CCC(=C(c2ccc(F)cc2)c2ccc(F)cc2)CC1
4. c1ccc(-c2cnc(Nc3ccc(OCCN4CCCC4)cc3)s2)cc1
5. COc1cc2c(Nc3ccc(Br)cc3F)ncnc2cc1OCC1CCN(C)CC1

Result:
1: 95.3; 2: 90.8; 3: 99.8; 4: 79.3; 5: 103

----------
Assignment: determine reported residual activity for the given compounds.
ASSAY SYSTEM: ACVRL1 (human) (UniProt P37023)
Sequence (P37023 whole entry, looked up): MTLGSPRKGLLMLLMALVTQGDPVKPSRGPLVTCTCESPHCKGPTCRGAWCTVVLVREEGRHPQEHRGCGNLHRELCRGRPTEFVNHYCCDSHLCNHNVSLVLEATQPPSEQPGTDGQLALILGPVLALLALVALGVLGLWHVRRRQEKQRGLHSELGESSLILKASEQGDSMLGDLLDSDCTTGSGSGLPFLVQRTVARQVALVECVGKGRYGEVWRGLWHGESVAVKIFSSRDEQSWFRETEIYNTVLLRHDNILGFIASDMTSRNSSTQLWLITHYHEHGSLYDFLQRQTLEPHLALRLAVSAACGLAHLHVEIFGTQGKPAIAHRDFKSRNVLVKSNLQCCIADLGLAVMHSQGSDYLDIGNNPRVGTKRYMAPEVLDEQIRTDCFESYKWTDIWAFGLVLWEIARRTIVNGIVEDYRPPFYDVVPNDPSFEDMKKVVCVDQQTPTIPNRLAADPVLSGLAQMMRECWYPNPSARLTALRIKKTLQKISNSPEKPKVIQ
PROTOCOL TEXT: radiometric filter-binding kinase assay, Kinase HotSpot
MEASUREMENT CONDITIONS: compound 0.5 µM; ATP 10 µM
Answers are plain numbers, in %.

Examples from the recorded data:
>>> df
                            chemical_smiles  measured_endpoint  recorded_measurement
0  COc1cc2c(cc1OC)-c1[nH]nc(Nc3cccc(F)c3)c1C2  residual activity                   102
1          COc1cccc(-c2cc(=O)c3ccccc3o2)c1N  residual activity                  93.5
2  N#CCCc1ccc2c(c1)-c1[nH]c3ccc([N+](=O)[O-])cc3c1CC(=O)N2  residual activity                  53.6

Provide reported residual activity for each item, in the same order as listed.
1. COc1cc2c(Nc3ccc(Br)cc3F)ncnc2cc1OCC1CCN(C)CC1
2. O=c1[nH]c2ccccc2n1C1CCN(Cc2ccc(-c3nc4cc5[nH]cnc5cc4nc3-c3ccccc3)cc2)CC1
3. CCCCc1c(-c2ccc(O)cc2)[nH]c2nccnc12
4. O=C(c1ccccc1)c1ccc(N2CCOCC2)cc1O
5. COc1cc2c(N3CCN(C(=O)Nc4ccc(OC(C)C)cc4)CC3)ncnc2cc1OCCCN1CCCCC1
6. Nc1ncnc2c1cnn2-c1ccccc1

Result:
1. 104
2. 105
3. 76.2
4. 105
5. 102
6. 109

----------
ASSAY SYSTEM: UniProtKB O75582
Sequence (O75582 whole entry, looked up): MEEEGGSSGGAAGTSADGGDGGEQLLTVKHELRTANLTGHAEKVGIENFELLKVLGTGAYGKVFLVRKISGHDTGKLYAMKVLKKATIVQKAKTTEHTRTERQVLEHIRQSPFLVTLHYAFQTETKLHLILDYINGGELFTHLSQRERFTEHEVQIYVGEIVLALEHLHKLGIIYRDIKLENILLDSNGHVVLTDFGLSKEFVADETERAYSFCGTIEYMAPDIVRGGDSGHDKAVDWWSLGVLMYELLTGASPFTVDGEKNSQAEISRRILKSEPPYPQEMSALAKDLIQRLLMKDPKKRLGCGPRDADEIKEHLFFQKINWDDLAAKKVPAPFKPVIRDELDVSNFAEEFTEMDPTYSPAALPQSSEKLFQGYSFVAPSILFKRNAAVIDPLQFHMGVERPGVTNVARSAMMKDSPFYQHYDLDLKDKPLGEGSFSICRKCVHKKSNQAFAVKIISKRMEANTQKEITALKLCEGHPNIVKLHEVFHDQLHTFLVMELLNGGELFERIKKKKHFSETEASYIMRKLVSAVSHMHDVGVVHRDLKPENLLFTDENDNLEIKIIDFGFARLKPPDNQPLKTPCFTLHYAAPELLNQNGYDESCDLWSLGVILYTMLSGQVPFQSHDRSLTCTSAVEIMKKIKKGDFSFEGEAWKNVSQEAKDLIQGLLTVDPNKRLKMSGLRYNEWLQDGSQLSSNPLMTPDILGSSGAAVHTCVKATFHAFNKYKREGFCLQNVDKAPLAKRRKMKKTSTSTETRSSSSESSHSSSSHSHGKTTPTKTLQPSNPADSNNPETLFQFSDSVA
PROTOCOL TEXT: radiometric filter-binding kinase assay, Kinase HotSpot
MEASUREMENT CONDITIONS: compound 0.5 µM; ATP 10 µM
MEASURED ENDPOINT: residual activity (%)
One number for each entry, in %.

Examples from the recorded data:
In [3]: df
Out[3]:
                            chemical_smiles  recorded_measurement
0      COc1cc2ncnc(Nc3ccc(O)c(Br)c3)c2cc1OC                  93.4
1  N#CCCc1ccc2c(c1)-c1[nH]c3ccc([N+](=O)[O-])cc3c1CC(=O)N2                  94.2
2      CCc1nc(-c2ccc(OC)cc2)[nH]c1-c1ccncc1                   107
3  O=C1NC(=O)c2c1c1c3ccccc3[nH]c1c1[nH]c3cc(Br)ccc3c21                  76.1

Provide reported residual activity for each item, in the same order as listed.
1. CCCCc1c(-c2ccc(O)cc2)[nH]c2nccnc12
2. FC(F)(F)c1ccc(/C=C/c2nc(COc3ccc(CCCCn4ccnn4)cc3)co2)cc1

Result:
[101, 111]

----------
ASSAY SYSTEM: LTK (human) (UniProt P29376)
Sequence (P29376 whole entry, looked up): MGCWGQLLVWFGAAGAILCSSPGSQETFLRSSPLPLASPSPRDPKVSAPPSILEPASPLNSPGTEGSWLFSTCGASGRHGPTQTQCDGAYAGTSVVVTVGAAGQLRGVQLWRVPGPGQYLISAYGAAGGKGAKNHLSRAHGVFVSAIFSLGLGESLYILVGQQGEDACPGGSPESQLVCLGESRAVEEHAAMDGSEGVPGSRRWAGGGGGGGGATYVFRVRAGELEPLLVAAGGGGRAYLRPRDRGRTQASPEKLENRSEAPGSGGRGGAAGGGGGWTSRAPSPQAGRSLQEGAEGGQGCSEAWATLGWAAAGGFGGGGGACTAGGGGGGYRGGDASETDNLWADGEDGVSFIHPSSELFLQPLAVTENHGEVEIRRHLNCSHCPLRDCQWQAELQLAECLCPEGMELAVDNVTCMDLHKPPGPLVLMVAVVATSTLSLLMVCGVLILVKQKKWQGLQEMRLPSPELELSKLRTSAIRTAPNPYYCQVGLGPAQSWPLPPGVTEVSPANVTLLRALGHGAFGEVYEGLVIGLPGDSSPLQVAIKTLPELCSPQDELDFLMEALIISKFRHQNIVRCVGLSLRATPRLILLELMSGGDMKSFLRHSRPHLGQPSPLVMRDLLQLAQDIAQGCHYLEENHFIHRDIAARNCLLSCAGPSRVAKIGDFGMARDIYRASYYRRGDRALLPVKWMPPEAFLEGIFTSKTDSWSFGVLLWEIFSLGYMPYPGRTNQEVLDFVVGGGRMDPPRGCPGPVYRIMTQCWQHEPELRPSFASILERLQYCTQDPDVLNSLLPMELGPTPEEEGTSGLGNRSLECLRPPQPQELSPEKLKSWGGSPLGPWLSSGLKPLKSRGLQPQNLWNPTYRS
PROTOCOL TEXT: radiometric filter-binding kinase assay, Kinase HotSpot
MEASUREMENT CONDITIONS: compound 0.5 µM; ATP 10 µM
Assignment: determine reported residual activity for the given compounds.
One number for each entry, in %.

Examples from the recorded data:
In [3]: df
Out[3]:
                            chemical_smiles  recorded_measurement
0  c1ccc(-c2cnc(Nc3ccc(OCCN4CCCC4)cc3)s2)cc1                  93.8
1  O=c1c2ccccc2[nH]c(=S)n1CCN1CCC(=C(c2ccc(F)cc2)c2ccc(F)cc2)CC1                  97.9
2          COc1cccc(-c2cc(=O)c3ccccc3o2)c1N                  75.4

Provide reported residual activity for each item, in the same order as listed.
1. FC(F)(F)c1ccc(/C=C/c2nc(COc3ccc(CCCCn4ccnn4)cc3)co2)cc1
2. Cc1cc(Nc2nc(-c3ccccc3)nc3ccccc23)n[nH]1

Result:
1: 104; 2: 63.6

Task: Observed residual activity on LTK (human) (UniProt P29376) for Cn1cc(/C=C2\C(=O)Nc3ccc(S(N)(=O)=O)cc32)c2ccccc21 , please.
Result: 54.5

----------
ASSAY SYSTEM: SYK (human) (UniProt P43405)
PROTOCOL TEXT: radiometric filter-binding kinase assay, Kinase HotSpot
MEASUREMENT CONDITIONS: compound 0.5 µM; ATP 10 µM
Assignment: determine reported residual activity for the given molecules.
Reply with the number and its unit after it.

Examples from the recorded data:
                            chemical_smiles  measured_endpoint  recorded_measurement
0  FC(F)(F)c1ccc(/C=C/c2nc(COc3ccc(CCCCn4ccnn4)cc3)co2)cc1  residual activity                 97.4%
1  N#C/C(=C1/Nc2ccccc2S1)c1ccnc(NCCc2cccnc2)n1  residual activity                 92.4%
2          COc1cccc(-c2cc(=O)c3ccccc3o2)c1N  residual activity                 97.2%

Provide reported residual activity for each item, in the same order as listed.
1. O=c1c(-c2ccc(F)cc2)c(-c2ccncc2)[nH]n1-c1ccc(Cl)cc1
2. O=c1c2ccccc2[nH]c(=S)n1CCN1CCC(=C(c2ccc(F)cc2)c2ccc(F)cc2)CC1
3. O=C1NC(=O)c2c1c1c3ccccc3[nH]c1c1[nH]c3cc(Br)ccc3c21

Result:
98.9%
93.2%
58.3%

Provide reported residual activity for each item, in the same order as listed.
1. N#Cc1c(NC(=O)c2cccc3ccccc23)sc2c1CCCC2
2. CCc1nc(-c2ccc(OC)cc2)[nH]c1-c1ccncc1
3. N/C(=N\N=C/c1ccc(-c2cccc([N+](=O)[O-])c2)o1)N[N+](=O)[O-]
4. CCCCc1c(-c2ccc(O)cc2)[nH]c2nccnc12
5. O=c1cc(N2CCOCC2)oc2c(-c3ccccc3)cccc12

Result:
1. 97.6%
2. 98.7%
3. 91.8%
4. 53.5%
5. 99.7%

----------
ASSAY SYSTEM: ERBB2 (human) (UniProt P04626)
Sequence (P04626 whole entry, looked up): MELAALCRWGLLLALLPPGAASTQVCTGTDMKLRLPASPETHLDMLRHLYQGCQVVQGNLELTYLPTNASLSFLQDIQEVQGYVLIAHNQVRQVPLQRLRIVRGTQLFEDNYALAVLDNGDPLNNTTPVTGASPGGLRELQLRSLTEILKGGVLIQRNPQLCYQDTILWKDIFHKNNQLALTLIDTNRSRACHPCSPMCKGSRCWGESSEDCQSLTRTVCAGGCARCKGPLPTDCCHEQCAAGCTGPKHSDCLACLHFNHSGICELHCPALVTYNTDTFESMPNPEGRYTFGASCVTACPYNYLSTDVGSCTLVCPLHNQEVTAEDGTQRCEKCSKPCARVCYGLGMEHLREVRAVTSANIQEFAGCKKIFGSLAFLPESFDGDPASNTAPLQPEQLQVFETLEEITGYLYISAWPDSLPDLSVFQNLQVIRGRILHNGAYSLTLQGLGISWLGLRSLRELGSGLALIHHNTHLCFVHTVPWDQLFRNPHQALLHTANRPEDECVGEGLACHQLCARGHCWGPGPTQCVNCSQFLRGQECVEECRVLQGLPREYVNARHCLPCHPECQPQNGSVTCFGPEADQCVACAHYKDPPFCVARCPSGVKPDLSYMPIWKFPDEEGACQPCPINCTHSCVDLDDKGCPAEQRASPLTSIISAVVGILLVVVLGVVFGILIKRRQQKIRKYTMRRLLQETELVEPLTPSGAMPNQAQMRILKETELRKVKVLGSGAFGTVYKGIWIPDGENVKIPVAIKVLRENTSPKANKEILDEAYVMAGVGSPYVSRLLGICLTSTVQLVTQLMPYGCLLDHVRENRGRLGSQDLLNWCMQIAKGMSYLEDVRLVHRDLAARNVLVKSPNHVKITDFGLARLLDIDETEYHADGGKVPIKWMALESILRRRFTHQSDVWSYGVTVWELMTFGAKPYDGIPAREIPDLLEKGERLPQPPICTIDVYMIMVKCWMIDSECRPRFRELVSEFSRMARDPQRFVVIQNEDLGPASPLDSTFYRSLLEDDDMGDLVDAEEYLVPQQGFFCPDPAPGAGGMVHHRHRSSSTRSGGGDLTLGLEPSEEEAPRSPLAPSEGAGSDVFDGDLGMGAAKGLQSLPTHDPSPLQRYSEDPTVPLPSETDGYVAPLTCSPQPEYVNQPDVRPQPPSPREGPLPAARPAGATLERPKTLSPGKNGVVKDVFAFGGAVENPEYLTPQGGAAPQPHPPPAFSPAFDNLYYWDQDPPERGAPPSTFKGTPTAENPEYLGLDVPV
PROTOCOL TEXT: radiometric filter-binding kinase assay, Kinase HotSpot
MEASUREMENT CONDITIONS: compound 0.5 µM; ATP 10 µM
MEASURED ENDPOINT: residual activity (%)
Give bare numbers, in %.

Examples from the recorded data:
>>> print(df.to_string())
                            chemical_smiles  recorded_measurement
0  O=c1[nH]c2ccccc2n1C1CCN(Cc2ccc(-c3nc4cc5[nH]cnc5cc4nc3-c3ccccc3)cc2)CC1                  88.9
1          O=C(c1ccccc1)c1ccc(N2CCOCC2)cc1O                  94.8

Provide reported residual activity for each item, in the same order as listed.
1. O=c1c2ccccc2[nH]c(=S)n1CCN1CCC(=C(c2ccc(F)cc2)c2ccc(F)cc2)CC1
2. COc1cccc(-c2cc(=O)c3ccccc3o2)c1N
3. N#Cc1c(NC(=O)c2cccc3ccccc23)sc2c1CCCC2
4. CCOc1cc2ncnc(Nc3cccc(Br)c3)c2cc1OCC

Result:
[98.8, 106, 97.6, 13.8]

----------
ASSAY SYSTEM: TBK1 (human) (UniProt Q9UHD2)
Sequence (Q9UHD2 whole entry, looked up): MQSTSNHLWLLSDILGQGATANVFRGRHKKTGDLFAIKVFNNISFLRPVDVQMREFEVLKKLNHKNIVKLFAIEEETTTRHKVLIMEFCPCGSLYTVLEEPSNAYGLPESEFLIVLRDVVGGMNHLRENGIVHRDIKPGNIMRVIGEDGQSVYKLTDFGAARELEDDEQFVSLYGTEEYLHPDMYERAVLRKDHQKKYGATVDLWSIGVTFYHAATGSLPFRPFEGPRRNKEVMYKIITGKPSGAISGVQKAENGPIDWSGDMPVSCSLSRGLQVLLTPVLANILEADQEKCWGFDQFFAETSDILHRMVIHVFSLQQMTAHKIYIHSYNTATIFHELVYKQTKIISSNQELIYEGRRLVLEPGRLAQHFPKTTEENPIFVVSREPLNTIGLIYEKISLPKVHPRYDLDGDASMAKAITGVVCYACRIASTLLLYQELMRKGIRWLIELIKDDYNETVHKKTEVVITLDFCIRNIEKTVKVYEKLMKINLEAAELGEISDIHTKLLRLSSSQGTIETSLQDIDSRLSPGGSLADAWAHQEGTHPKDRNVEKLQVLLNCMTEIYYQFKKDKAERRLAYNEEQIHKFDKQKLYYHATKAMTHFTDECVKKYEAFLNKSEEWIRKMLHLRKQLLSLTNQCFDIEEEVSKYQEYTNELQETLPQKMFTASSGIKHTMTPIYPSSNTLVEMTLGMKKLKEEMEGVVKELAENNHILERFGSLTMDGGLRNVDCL
PROTOCOL TEXT: radiometric filter-binding kinase assay, Kinase HotSpot
MEASUREMENT CONDITIONS: compound 0.5 µM; ATP 10 µM
Assignment: determine reported residual activity for the given molecules.
Give bare numbers, in %.

Examples from the recorded data:
>>> print(df.to_string())
                            chemical_smiles  recorded_measurement
0  COc1cc2c(cc1OC)-c1[nH]nc(Nc3cccc(F)c3)c1C2                   101
1  O=c1c(-c2ccc(F)cc2)c(-c2ccncc2)[nH]n1-c1ccc(Cl)cc1                   112
2      COc1cc2ncnc(Nc3ccc(O)c(Br)c3)c2cc1OC                  84.7

Provide reported residual activity for each item, in the same order as listed.
1. O=c1[nH]c2ccccc2n1C1CCN(Cc2ccc(-c3nc4cc5[nH]cnc5cc4nc3-c3ccccc3)cc2)CC1
2. CCc1nc(-c2ccc(OC)cc2)[nH]c1-c1ccncc1
3. O=c1cc(N2CCOCC2)oc2c(-c3ccccc3)cccc12
4. O=C(O)c1ccc2c3c1cccc3c(=O)n1c3ccccc3nc21
5. CCCCc1c(-c2ccc(O)cc2)[nH]c2nccnc12

Result:
92.7
99.7
94.1
20.2
82.1

Provide reported residual activity for each item, in the same order as listed.
1. COc1cc2c(N3CCN(C(=O)Nc4ccc(OC(C)C)cc4)CC3)ncnc2cc1OCCCN1CCCCC1
2. O=c1c2ccccc2[nH]c(=S)n1CCN1CCC(=C(c2ccc(F)cc2)c2ccc(F)cc2)CC1
3. O=S(=O)(NCCNC/C=C/c1ccc(Br)cc1)c1cccc2cnccc12

Result:
1: 97.2; 2: 104; 3: 101

Provide reported residual activity for each item, in the same order as listed.
1. Cn1cc(/C=C2\C(=O)Nc3ccc(S(N)(=O)=O)cc32)c2ccccc21
2. Cc1cc(Nc2nc(-c3ccccc3)nc3ccccc23)n[nH]1
3. N#C/C(=C1/Nc2ccccc2S1)c1ccnc(NCCc2cccnc2)n1
4. N#CCCc1ccc2c(c1)-c1[nH]c3ccc([N+](=O)[O-])cc3c1CC(=O)N2
5. N#Cc1c(NC(=O)c2cccc3ccccc23)sc2c1CCCC2

Result:
21.6
53.8
100
83.7
94

Provide reported residual activity for each item, in the same order as listed.
1. COc1cc2c(Nc3ccc(Br)cc3F)ncnc2cc1OCC1CCN(C)CC1
2. COc1cccc(-c2cc(=O)c3ccccc3o2)c1N
3. O=C(c1ccccc1)c1ccc(N2CCOCC2)cc1O
4. O=C1NC(=O)c2cc(Nc3ccc(F)cc3)c(Nc3ccc(F)cc3)cc21
5. CCOc1cc2ncnc(Nc3cccc(Br)c3)c2cc1OCC
6. c1ccc(-c2cnc(Nc3ccc(OCCN4CCCC4)cc3)s2)cc1

Result:
1: 99.9; 2: 94.3; 3: 100; 4: 101; 5: 85.4; 6: 87.1
